Assay: Toxicity liver stage against HepG2, at 10uM
Assay type: cell-based
Design: test concentration 10 uM, cell line HepG2-A16-CD81EGFP
Settings: human, HepG2-A16-CD81EGFP cells; read-out: INHIBITION
MEASURED_PARAMETER: cytotoxicity at 10 µM (%)
# unit: % | format: bare number

c1cnc(-c2nn3c(CN4CCCCC4)nnc3s2)cn1
5.31
Cc1cccc(NCc2nc(C)ccc2O)c1
-3.59
Cc1ccsc1CNc1ccc(C(=O)N2CCNC(=O)C2)cn1
7.04
NCC1Cn2nnc(-c3cccc(F)c3)c2CO1 (centres undefined)
-12.1

Prompt: So what does the record say about cytotoxicity at 10 µM for `CN(C)C(=O)c1nc(CN2C(=O)OC[C@@H]2c2ccccc2)no1` ?
Completion: -1.95

Prompt: Consider the compound shown here: CC(C)c1nc(C2CCCN(C(=O)CN3CCCNC3=O)C2)no1 (centres undefined) What is its recorded cytotoxicity at 10 µM?
Completion: -4.1

Prompt: Item O=C(c1cccnc1N1CCCCC1)N1CCCC(n2cccn2)C1 (centres undefined) has what recorded cytotoxicity at 10 µM?
Completion: -0.438

Prompt: Can you share its cytotoxicity at 10 µM? I mean this compound: `CC(C)c1nnc2n1CCN(C(=O)c1cccc(OCC(N)=O)c1)C2`
Completion: -4.38

Prompt: For the compound CCOCC1CN(CCOc2ccc(Cl)cc2)Cc2c1cnn2C (centres undefined) , what cytotoxicity at 10 µM is on record?
Completion: -109

Prompt: Please report the recorded cytotoxicity at 10 µM for `CO[C@H]1CC[C@H]2[C@H]1OCCN2C(=O)C1=CCCC1` .
Completion: -131

Prompt: Given the compound `COCc1ccc(C(=O)N(CCC#N)Cc2ccccn2)cc1` , what is its reported cytotoxicity at 10 µM?
Completion: 14

Prompt: Recorded cytotoxicity at 10 µM for `Cc1noc([C@@H]2CCO[C@@H]3CCN(Cc4ccc(C)s4)C[C@@H]32)n1` , please?
Completion: -77.6

Prompt: Fill blank: measured cytotoxicity at 10 µM of the compound CCn1ncc2c1C(COC)CN(Cc1cccnc1)C2 (centres undefined) is ____.
Completion: 0.588

Prompt: Which measured cytotoxicity at 10 µM value corresponds to CN1CC(=O)N(c2cccc(F)c2)CC12CCN(Cc1ccsc1)C2 (centres undefined) ?
Completion: 4.93

Prompt: Please look up its cytotoxicity at 10 µM: OC(CNc1ccc(Cl)cn1)CN1CCOCC1 (centres undefined)
Completion: 4.15

----------
Items are presented alongside their recorded cytotoxicity at 10 µM.
Assay: Toxicity liver stage against HepG2, at 10uM
Assay type: cell-based
Design: test concentration 10 uM, cell line HepG2-A16-CD81EGFP
Conditions: human, HepG2-A16-CD81EGFP cells; read-out: INHIBITION
Write the numeric value and follow it with the unit.

Consider the worked cases shown below.
Cc1cccc(C(=O)NCC(O)c2ccc(F)cc2F)c1 (stereo not given)
6.27%
CN(C)[C@H]1CN(C(=O)CCCc2ccc(F)cc2)C[C@@H]1C1CC1
-3.01%
Cc1ccc(-n2cc(C(=O)N3CCCC(n4cccn4)C3)nn2)cc1 (stereo not given)
-20.3%

Prompt: Give the measured cytotoxicity at 10 µM of Cc1cc(C)c(CN2CCCC23Cc2ccccc2CNC3=O)c(C)c1 (stereo not given) .
Completion: 10.8%

Prompt: Given `Cc1cnn(CCNCC(=O)N2CCN(c3ncccn3)CC2)c1` , state its recorded cytotoxicity at 10 µM.
Completion: -0.0264%
